Experiment: circular dichroism
Settings: 5 mM sodium phosphate; pH 7.0; ns °C; 0.5 or 2 mg/mL
Positions of bridges follow the written chain, without caps; N, C: chain ends. Non-standard residues stand in square brackets, D forms with d. Residues, ends and D or L forms follow the SMILES beside them. S5 = C=CCCC[C@](C)(N)C(=O)O; Aib = CC(C)(N)C(=O)O
endpoint-label: helicity (%)
Only the number, expressed in %, is required.

Consider the reported helicity for these compounds:
{"compound": "CC(=O)N[C@@H](CCCCN)C(=O)N[C@@H](CCCCN)C(=O)N[C@@H](CCCNC(=N)N)C(=O)N[C@@H](Cc1ccc(O)cc1)C(=O)N[C@@H](CO)C(=O)N[C@@H](CCCNC(=N)N)C(=O)NC(C)(C)C(=O)N[C@@H](Cc1ccccc1)C(=O)N[C@@H](CC(C)C)C(=O)N[C@@H](CC(C)C)C(=O)NC(C)(C)C(=O)N[C@@H](Cc1ccccc1)C(N)=O (Ac-KKRYSR[Aib]FLL[Aib]F-NH2)", "endpoint-label": "helicity", "value-measured": 2}
{"compound": "CC(=O)N[C@@H](CCCCN)C(=O)N[C@@H](CCCCN)C(=O)N[C@@H](CCCNC(=N)N)C(=O)N[C@@H](Cc1ccc(O)cc1)C(=O)N[C@@H](CO)C(=O)N[C@@H](CCCNC(=N)N)C(=O)N[C@@]1(C)CCCC=CCCC[C@@](C)(C(=O)N[C@@H](Cc2ccccc2)C(N)=O)NC(=O)[C@H](CC(C)C)NC(=O)[C@H](CC(C)C)NC(=O)[C@H](Cc2ccccc2)NC1=O (Ac-KKRYSR[S5]FLL[S5]F-NH2; staple 7-11)", "endpoint-label": "helicity", "value-measured": 24}

Give reported helicity value for CC(=O)N[C@@H](CCCCN)C(=O)N[C@@H](CCCCN)C(=O)N[C@@H](CCCNC(=N)N)C(=O)N[C@@H](Cc1ccc(O)cc1)C(=O)N[C@@H](CO)C(=O)N[C@@H](CCCNC(=N)N)C(=O)N[C@@]1(C)CCCC=CCCC[C@@](C)(C(=O)N[C@@H](Cc2ccccc2)C(N)=O)NC(=O)[C@H](CC(C)C)NC(=O)[C@H](CC(C)C)NC(=O)[C@H](C)NC1=O (relative stereo)
80

* * *

Assay: circular dichroism
Conditions: 5 mM sodium phosphate; pH 7.0; ns °C; 0.5 or 2 mg/mL
Non-standard residues stand in square brackets, D forms with d. Residues, ends and D or L forms follow the SMILES beside them. Abu = CC[C@H](N)C(=O)O; Aib = CC(C)(N)C(=O)O
helicity vs 10%: at or above is true (1), below is false (0).

// below: answered molecules
{"molecule": "CC[C@H](NC(=O)[C@]1(C)CCCC=CCCC[C@](C)(NC(=O)[C@H](CCCNC(=N)N)NC(=O)[C@H](CO)NC(=O)[C@H](Cc2ccc(O)cc2)NC(=O)[C@H](CCCNC(=N)N)NC(=O)[C@H](CCCCN)NC(=O)[C@H](CCCCN)NC(C)=O)C(=O)N[C@@H](Cc2ccccc2)C(=O)N[C@@H](CC(C)C)C(=O)N[C@@H](CC(C)C)C(=O)N1)C(N)=O (relative stereo) [sTIP-01^F12&, KKRYSR*FLL*&]", "label-value": "true (1)"}
{"molecule": "CC(=O)N[C@@H](CCCCN)C(=O)N[C@@H](CCCCN)C(=O)N[C@@H](CCCNC(=N)N)C(=O)N[C@@H](Cc1ccc(O)cc1)C(=O)N[C@@H](CO)C(=O)N[C@@H](CCCNC(=N)N)C(=O)N[C@@H](CCC(=O)O)C(=O)NC(C)(C)C(=O)N[C@@H](CC(C)C)C(=O)N[C@@H](CC(C)C)C(=O)NCC(=O)NC(C)(C)C(N)=O [TIP-02, KKRYSREXLLGX]", "label-value": "false (0)"}
{"molecule": "CC[C@H](NC(=O)C(C)(C)NC(=O)[C@H](CC(C)C)NC(=O)[C@H](CC(C)C)NC(=O)[C@H](Cc1ccccc1)NC(=O)C(C)(C)NC(=O)[C@H](CCCNC(=N)N)NC(=O)[C@H](CO)NC(=O)[C@H](Cc1ccc(O)cc1)NC(=O)[C@H](CCCNC(=N)N)NC(=O)[C@H](CCCCN)NC(=O)[C@H](CCCCN)NC(C)=O)C(N)=O [TIP-01^F12&, KKRYSRXFLLX&] (Ac-KKRYSR[Aib]FLL[Aib][Abu]-NH2)", "label-value": "true (1)"}

Kindly consider the entry below.
Is the recorded value of helicity equal to or greater than 10% for this molecule? CC(=O)N[C@@H](CCCCN)C(=O)N[C@@H](CCCCN)C(=O)N[C@@H](CCCNC(=N)N)C(=O)N[C@@H](Cc1ccc(O)cc1)C(=O)N[C@@H](CO)C(=O)N[C@@H](CCCNC(=N)N)C(=O)N[C@@H](CCC(=O)O)C(=O)N[C@]1(C)CCCC=CCCC[C@@](C)(C(=O)N[C@@H](Cc2ccccc2)C(N)=O)NC(=O)[C@H](CC(C)C)NC(=O)[C@H](CC(C)C)NC1=O [sTIP-03, KKRYSRE*LL*F]
true (1)

Recorded values, source patent US20160046672A1.
